Biological target: Serine/threonine-protein kinase TAO1 (Homo sapiens)
Sequence (Q7L7X3 whole entry): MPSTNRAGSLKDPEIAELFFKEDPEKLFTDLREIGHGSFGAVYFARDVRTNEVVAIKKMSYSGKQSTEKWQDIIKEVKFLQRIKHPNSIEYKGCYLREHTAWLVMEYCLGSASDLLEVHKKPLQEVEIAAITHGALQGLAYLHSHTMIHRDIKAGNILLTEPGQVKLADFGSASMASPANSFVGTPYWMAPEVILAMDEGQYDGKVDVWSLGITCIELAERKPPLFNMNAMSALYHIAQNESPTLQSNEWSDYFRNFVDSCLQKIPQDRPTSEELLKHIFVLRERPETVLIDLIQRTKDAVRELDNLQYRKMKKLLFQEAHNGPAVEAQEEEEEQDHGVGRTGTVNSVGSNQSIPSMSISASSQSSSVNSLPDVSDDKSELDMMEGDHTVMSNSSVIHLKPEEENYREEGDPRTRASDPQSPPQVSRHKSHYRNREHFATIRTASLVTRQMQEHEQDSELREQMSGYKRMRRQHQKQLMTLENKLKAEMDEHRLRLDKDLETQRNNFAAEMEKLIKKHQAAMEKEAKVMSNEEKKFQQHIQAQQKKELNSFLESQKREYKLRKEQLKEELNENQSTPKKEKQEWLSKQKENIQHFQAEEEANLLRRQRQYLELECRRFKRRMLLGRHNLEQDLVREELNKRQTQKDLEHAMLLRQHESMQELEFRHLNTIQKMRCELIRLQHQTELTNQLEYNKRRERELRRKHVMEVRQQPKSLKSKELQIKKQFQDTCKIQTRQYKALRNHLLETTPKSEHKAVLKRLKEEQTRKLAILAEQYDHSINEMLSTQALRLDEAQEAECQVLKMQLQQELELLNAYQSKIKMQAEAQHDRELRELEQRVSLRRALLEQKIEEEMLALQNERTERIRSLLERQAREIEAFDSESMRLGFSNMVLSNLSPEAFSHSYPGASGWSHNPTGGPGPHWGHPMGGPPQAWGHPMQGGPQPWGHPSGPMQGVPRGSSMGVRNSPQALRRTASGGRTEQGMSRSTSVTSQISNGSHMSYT
MEASUREMENT KIND: pIC50
As a rule, pIC50 stands for the negative log10 of the concentration, concentration in M.

Give pIC50; test system Serine/threonine-protein kinase TAO1 (Homo sapiens); molecule CN1C(=O)[C@@H](N2CCc3cn(CC4CCS(=O)(=O)CC4)nc3C2=O)COc2ccccc21 [TP-030n]
6.00
